# System: MM487-Luc mesothelioma
# TEST_SUMMARY: Anti-proliferative activity, MM487-Luc, 72 h, SRB
# Assay type: cell-based, Human
# EXPERIMENTAL_CONTEXT: read-out: MM487-Luc IC50 ± SD

COMPOUND: CC(Oc1ccc(-c2ccc(/C=C/C(=O)O)cc2)cc1C12CC3CC(CC(C3)C1)C2)C(=O)NO (stereo not shown) [GEM144]
IC50: 730 nM

---

# System: NB4 (leukemia)
# TEST_SUMMARY: Cell survival, NB4, 72 h, MTT
# Format: cell-based, Human
# EXPERIMENTAL_CONTEXT: Homo sapiens, read-out: NB4 (leukemia) IC50 ± SD
# Description: The anti-proliferative activity of the POLA1/HDAC dual inhibitors MIR002 and GEM144 was assessed on various cell lines from solid and hematological cancers. Tumor cells were treated with POLA1/HDAC dual inhibitors and cell survival assessed upon 72 h with the MTT assay. HDAC=Histone Deacetylase. POLA1=DNA Polymerase Alpha 1.

COMPOUND: O=C(O)/C=C/c1ccc(-c2ccc(OCC(=O)NO)c(C34CC5CC(CC(C5)C3)C4)c2)cc1 [Compound 8]
IC50, nM: 180

---

# Test system: Human NCI-H460 NSCLC
# TEST_SUMMARY: Anti-proliferative activity, NCI-H460, 72 h, SRB
# Type: cell-based
# EXPERIMENTAL_CONTEXT: 72 h; SRB (Table 8); read-out: NCI-H460 IC50 ± SD
pIC50: −log10 of the molar value.

COMPOUND: CC(Oc1ccc(-c2ccc(/C=C/C(=O)O)cc2)cc1C12CC3CC(CC(C3)C1)C2)C(=O)NO (stereo not shown)
pIC50: 6.59
